Provenance of the data: patent US20250388584A1

- MEASUREMENT TARGET: TPK enzyme (Homo sapiens (Human))
- Sequence (Q9H3S4 whole entry): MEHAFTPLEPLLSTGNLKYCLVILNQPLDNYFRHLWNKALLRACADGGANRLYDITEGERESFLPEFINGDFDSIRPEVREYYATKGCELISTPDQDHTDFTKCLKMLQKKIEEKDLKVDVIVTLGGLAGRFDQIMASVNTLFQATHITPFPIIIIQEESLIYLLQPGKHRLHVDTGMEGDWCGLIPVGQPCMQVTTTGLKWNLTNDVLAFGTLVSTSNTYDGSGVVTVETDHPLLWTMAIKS
- METHOD NOTES: TPK enzyme activity test
- Format: biochemical
- CONDITION CONTEXT: calculated with the effect of DMSO on TPK enzyme activity as 100%; read-out: Emax
OUTCOME MEASURE: Emax (%)
Answers are plain numbers, in %.

Consider the following illustrative entries.
MOLECULE: Cc1ccc2[nH]c3c(=O)n(CCC(=O)NCCNc4ccc5c(c4)CCCC5)cnc3c2c1
Emax, %: 193
//
MOLECULE: Cc1ccc2[nH]c3c(=O)n(CCC(=O)N4CCN(c5cc(C(F)(F)F)cc(C(F)(F)F)c5)CC4)cnc3c2c1
Emax, %: 144

Need Emax for each of these molecules.
1. Cc1ccc(N2CCN(C(=O)CCn3cnc4c([nH]c5ccc(C)cc54)c3=O)CC2)c(C)c1
2. COc1ccc2c(c1)N1CCN(c3ccc(C)cc3)CC1C(C(=O)Nc1ccccc1)C2 (centres unmarked)
3. Cc1ccc2[nH]c3c(=O)n(CCC(=O)N4CCC(O)(c5cccc(C(F)(F)F)c5)CC4)cnc3c2c1

151
187
157

Need Emax for each of these molecules.
1. O=C1CCCCN1CCCN1c2ccccc2Sc2ccccc21
2. Cc1ccc2c(c1)[nH]c1c(=O)n(CCC(=O)N3CCN(c4cccc(C(F)(F)F)c4)CC3)cnc12
3. Cc1ccc2[nH]c3c(=O)n(CCC(=O)NCCN(C)c4cccc(C(F)(F)F)c4)cnc3c2c1

1. 176
2. 207
3. 192
